Target: JAK1 (aa 850-1154, catalytic domain, GST-tag) (Homo sapiens)
Construct: JAK1 (aa 850-1154) and TYK2 (aa 871-1187) are expressed with an N-terminally fused GST-tag; GST (N); purchased Carna Biosciences, Inc; host or cells: baculovirus expression system
Sequence (P23458 850-1154): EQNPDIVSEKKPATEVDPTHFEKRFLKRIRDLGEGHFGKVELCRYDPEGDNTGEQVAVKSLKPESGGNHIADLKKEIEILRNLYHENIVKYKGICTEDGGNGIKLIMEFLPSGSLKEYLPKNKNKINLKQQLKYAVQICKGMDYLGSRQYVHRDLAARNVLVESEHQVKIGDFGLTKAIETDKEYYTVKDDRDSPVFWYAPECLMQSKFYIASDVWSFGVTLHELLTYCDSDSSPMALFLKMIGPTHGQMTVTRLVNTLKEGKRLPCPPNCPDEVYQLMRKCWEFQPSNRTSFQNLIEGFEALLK
Assay: JAK kinase assay (HTRF, phosphorylation of TK substrate-biotin), JAK1
Format: biochemical
Details: HTRF assay, ATP at Km (7 μM); read-out: JAK1 kinase inhibitory activity (EC50 indicator)
pEC50: −log10 of the molar value.
pEC50 reference

[
  {
    "SUBSTANCE_SMILES": "CC(C)S(=O)(=O)Nc1ccc(C(=O)N2CCN(c3ncnc4[nH]ccc34)CC23CC3)cc1",
    "pEC50": "> 7.00"
  },
  {
    "SUBSTANCE_SMILES": "COCCS(=O)(=O)c1ccc(C(=O)N2CCN(c3ncnc4[nH]ccc34)CC23CC3)cc1",
    "pEC50": "> 7.00"
  },
  {
    "SUBSTANCE_SMILES": "N#CCc1ccccc1C(=O)N1CCN(c2ncnc3[nH]ccc23)CC12CC2",
    "pEC50": "> 7.00"
  }
]

The reported pEC50 of the molecule COc1cnc2[nH]ccc2c1N1CCN(C(=O)c2ccc(-c3ccccc3)s2)C2(CC2)C1 was < 6.30

The reported pEC50 of the molecule COc1cnc2[nH]ccc2c1N1CCN(C(=O)Cc2ccc(C#N)cc2)C2(CC2)C1 was 6.30 to 7.00
